# TGT: T1, orthogonal hCD122 receptor (hoRb), hCD122 with H133D and Y134F (human, UniProt P14784 27-550)
# T1 sequence: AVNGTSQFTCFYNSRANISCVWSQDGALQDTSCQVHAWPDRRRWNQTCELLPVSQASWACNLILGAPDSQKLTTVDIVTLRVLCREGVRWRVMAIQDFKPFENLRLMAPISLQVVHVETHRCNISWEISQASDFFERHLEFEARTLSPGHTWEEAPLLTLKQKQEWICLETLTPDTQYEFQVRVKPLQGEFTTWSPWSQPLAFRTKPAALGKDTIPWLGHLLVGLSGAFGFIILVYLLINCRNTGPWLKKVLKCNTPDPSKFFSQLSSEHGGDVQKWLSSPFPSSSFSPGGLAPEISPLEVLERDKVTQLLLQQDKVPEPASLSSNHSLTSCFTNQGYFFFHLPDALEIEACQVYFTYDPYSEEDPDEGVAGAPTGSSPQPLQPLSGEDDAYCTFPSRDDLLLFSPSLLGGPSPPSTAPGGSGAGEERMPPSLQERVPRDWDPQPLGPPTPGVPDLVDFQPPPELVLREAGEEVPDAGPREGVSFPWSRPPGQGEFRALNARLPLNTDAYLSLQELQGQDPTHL
# TEST_DETAILS: cell-based or functional assay
READOUT_TYPE: NKL Ortho Proliferation Signal 1:10

Check out these entries, answers already filled in.
{"BINDER": "L18M, SQVLKA (ligand) APTSSSTKKTQLQLSQLMVLLKAILNGINNYKNPKLTRMLTFKFYMPKKATELKHLQCLEEELKPLEEVLNLAQSKNFHLRPRDLISNINVIVLELKGSETTFMCEYADETATIVEFLNRWITFCQSIISTLT", "REPORTED_MEASUREMENT": 43900}
{"BINDER": "T3A, SQVLKA (ligand) APASSSTKKTQLQLSQLLVLLKAILNGINNYKNPKLTRMLTFKFYMPKKATELKHLQCLEEELKPLEEVLNLAQSKNFHLRPRDLISNINVIVLELKGSETTFMCEYADETATIVEFLNRWITFCQSIISTLT", "REPORTED_MEASUREMENT": 79500}
{"BINDER": "Q74N, SQVLKA (ligand) APTSSSTKKTQLQLSQLLVLLKAILNGINNYKNPKLTRMLTFKFYMPKKATELKHLQCLEEELKPLEEVLNLANSKNFHLRPRDLISNINVIVLELKGSETTFMCEYADETATIVEFLNRWITFCQSIISTLT", "REPORTED_MEASUREMENT": 47400}
{"BINDER": "C125A, SQVLKA (ligand) APTSSSTKKTQLQLSQLLVLLKAILNGINNYKNPKLTRMLTFKFYMPKKATELKHLQCLEEELKPLEEVLNLAQSKNFHLRPRDLISNINVIVLELKGSETTFMCEYADETATIVEFLNRWITFAQSIISTLT", "REPORTED_MEASUREMENT": 50400}
{"BINDER": "L18I, SQVLKA (ligand) APTSSSTKKTQLQLSQLIVLLKAILNGINNYKNPKLTRMLTFKFYMPKKATELKHLQCLEEELKPLEEVLNLAQSKNFHLRPRDLISNINVIVLELKGSETTFMCEYADETATIVEFLNRWITFCQSIISTLT", "REPORTED_MEASUREMENT": 20500}
{"BINDER": "SQVLKT (ligand) APTSSSTKKTQLQLSQLLVLLKTILNGINNYKNPKLTRMLTFKFYMPKKATELKHLQCLEEELKPLEEVLNLAQSKNFHLRPRDLISNINVIVLELKGSETTFMCEYADETATIVEFLNRWITFCQSIISTLT", "REPORTED_MEASUREMENT": 63400}

Turning now to a further binder:
Challenge: Determine from records and report NKL Ortho Proliferation Signal 1:10 for SQVLAA (ligand) APTSSSTKKTQLQLSQLLVLLAAILNGINNYKNPKLTRMLTFKFYMPKKATELKHLQCLEEELKPLEEVLNLAQSKNFHLRPRDLISNINVIVLELKGSETTFMCEYADETATIVEFLNRWITFCQSIISTLT
Response given: 11800
